- system.under.test: human thrombin (Homo sapiens)
- Construct: Human α-thrombin (3,000 NIH units/mg); purchased Sigma
- test.method.notes: Inhibition of amidolytic activity of human thrombin (fluorogenic, Tos-Gly-Pro-Arg-AMC), Ki
- Type: biochemical
- test.parameters: FIG. 1 Dixon plot; human α-thrombin 0.033 NIH unit/mL, pH 7.8, 25° C.; read-out: Ki
- Experimental: Materials. The chromogenic and fluorogenic substrates Tosyl-Gly-Pro-Arg-pNAand Tos-Gly-Pro-Arg-AMC were purchased from Boehringer Manheim and Sigma, respectively. […] Initial velocities were recorded at several inhibitor concentrations and kinetic parameters were determined by fitting the data to a general equation describing enzyme inhibition (Segel, 1975). The data were analyzed using the non-linear regression program RNLIN in the IMSL library (IMSL, 1987) on a microVAX™ 3500 computer. […]
readout.label: Ki (pM)

substance	measured.value
dansyl-Arg-(D-pipecolic acid)-(12-aminododecanoic acid)-4-aminobutyric acid)-Asp-Phe-Glu-Glu-Ile-Pro-Glu-Glu-Tyr-Leu-Gln-OH [Peptide P448]	17

Where do the numbers come from? From patent US6127337A.
